Would you kindly list % Hemolysis 100 μg/ml for each of these compounds?
system: human red blood cells; experiment: Hemolytic assay; assay type: cell-based; settings: red cells of human, 100
Peptide text beside a SMILES is read from it. * marks the point of attachment. Acm = CC(=O)NC*
Give just the number in %; leave the unit off.

What value of % Hemolysis 100 μg/ml has been reported for the following compound? CC(=O)NCSC[C@H](NC(=O)[C@H](CCCCN)NC(=O)[C@@H](N)Cc1ccccc1)C(=O)N[C@@H](Cc1c[nH]c2ccccc12)C(=O)N[C@@H](CCCNC(=N)N)C(=O)N[C@@H](Cc1c[nH]c2ccccc12)C(=O)N[C@@H](CCC(N)=O)C(=O)N[C@@H](Cc1c[nH]c2ccccc12)C(=O)N[C@@H](CCCNC(=N)N)C(=O)N[C@@H](Cc1c[nH]c2ccccc12)C(=O)N[C@@H](CCCCN)C(=O)N[C@@H](CCCCN)C(=O)N[C@@H](CC(C)C)C(=O)NCC(=O)N[C@@H](C)C(=O)O [LFB W4, 10] (H-FKC(Acm)WRWQWRWKKLGA-OH)
27.8

Item: CSCC[C@H](NC(=O)[C@H](CCCNC(=N)N)NC(=O)[C@H](C)NC(=O)[C@H](CCC(N)=O)NC(=O)[C@H](Cc1c[nH]c2ccccc12)NC(=O)[C@H](CCCNC(=N)N)NC(=O)[C@H](CCCNC(=N)N)NC(=O)[C@H](CSCNC(C)=O)NC(=O)[C@H](CCCCN)NC(=O)[C@@H](N)Cc1ccccc1)C(=O)N[C@@H](CCCCN)C(=O)N[C@@H](CCCCN)C(=O)N[C@@H](CC(C)C)C(=O)NCC(=O)N[C@@H](C)C(=O)O [LFB A8] (H-FKC(Acm)RRWQARMKKLGA-OH; N-terminus assumed)
3.45

Follow-up item: CSCC[C@H](NC(=O)[C@H](CCC(=O)O)NC(=O)[C@H](Cc1c[nH]c2ccccc12)NC(=O)[C@H](CCC(N)=O)NC(=O)[C@H](Cc1c[nH]c2ccccc12)NC(=O)[C@H](CCCNC(=N)N)NC(=O)[C@H](CC(C)C)NC(=O)[C@H](CSCNC(C)=O)NC(=O)[C@H](CCCCN)NC(=O)[C@H](C)N)C(=O)N[C@@H](CCCNC(=N)N)C(=O)N[C@@H](CCCCN)C(=O)N[C@H](C(=O)NCC(=O)NCC(=O)O)C(C)C [LFM A1 W8] (H-AKC(Acm)LRWQWEMRKVGG-OH; N-terminus assumed)
3

Lookup `CSCC[C@H](NC(=O)[C@H](CCCNC(=N)N)NC(=O)[C@H](Cc1c(S(=O)(=O)c2c(C)c(C)c3c(c2C)CCC(C)(C)O3)[nH]c2ccccc12)NC(=O)[C@H](CCC(N)=O)NC(=O)[C@H](Cc1c[nH]c2ccccc12)NC(=O)[C@H](CCCNC(=N)N)NC(=O)[C@H](CCCNC(=N)N)NC(=O)[C@H](CSCNC(C)=O)NC(=O)[C@H](CCCCN)NC(=O)[C@@H](N)Cc1ccccc1)C(=O)N[C@@H](CCCCN)C(=O)N[C@@H](CCCCN)C(=O)N[C@@H](CC(C)C)C(=O)NCC(=O)N[C@@H](C)C(=O)O`
9.79
